# target_entity: IL-17A/F (Homo sapiens, UniProt Q16552+Q96PD4)
# Sequence (Q16552 24-155): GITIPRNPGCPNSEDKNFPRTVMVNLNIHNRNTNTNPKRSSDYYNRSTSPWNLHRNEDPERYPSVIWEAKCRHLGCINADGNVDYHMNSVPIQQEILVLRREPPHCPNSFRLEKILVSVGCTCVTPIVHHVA
# Sequence (Q96PD4 31-163): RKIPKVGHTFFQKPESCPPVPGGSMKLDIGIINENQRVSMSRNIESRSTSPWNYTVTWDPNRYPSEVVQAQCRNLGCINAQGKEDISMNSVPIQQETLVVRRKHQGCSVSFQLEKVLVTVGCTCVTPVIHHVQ
# method_description: IL-17A/F HEK-Blue cell assay (SEAP reporter)
# condition_context: HEK-Blue IL-17A reporter cells, IL17A/F 5 ng/mL, 20 hours, SEAP read at A630; read-out: HEK-Blue IL17AF (IC50 for IL-17A/F inhibition)
pIC50: −log10 of the molar value.
Measured pIC50, listed per entry.

So for CCn1nccc1C(=O)N[C@H](c1cn2nc(C[C@@H]3CC(F)(F)CNC3=O)c(C3CCOCC3)nc2n1)[C@H]1CC[C@H](C)CC1 [Compound 223] , the logged pIC50 turned out to be 6.00 to 7.00

Entry under test: CCn1nccc1C(=O)N[C@H](c1cn2nc(C[C@H]3C[C@@H](C(F)(F)F)CNC3=O)c(CN3CCN(CC(F)(F)F)C(=O)C3)nc2n1)C1CCC(F)(F)CC1 [Compound 352] . Its pIC50 was < 6.00

Let us examine a further case.
Kindly note the recorded pIC50 for CCn1nccc1C(=O)N[C@@H](CCC(C)(C)C(F)(F)F)c1cn2nc(C[C@H]3C[C@@H](C(F)(F)F)CNC3=O)c(C3CCOCC3)nc2n1 (single isomer, unassigned) [Compound 160] , which is 6.00 to 7.00

Reference source: patent US20260226068A1
